Assay: Half life of the compound in 1:1 H2O:ethylalcohol containing 3.33 x 10^-3 M NaOH at 8.3 x 10^-5 M by UV-spectroscopy
Type: physicochemical
Details: 1:1 water:ethanol with NaOH
METRIC: half-life at 83 µM (min)
// note: answer is a bare numeric in min

Enquiry: // returns reported half-life at 83 µM for input NP(=O)(Oc1c(F)c(F)c(F)c(F)c1F)N(CCCl)CCCl (stereo unspecified)
Return: 1.33
